Test system: IL-2
PROCEDURE SUMMARY: Inhibition of IL-2 release in PBMC
Assay type: cell-based
RUN PARAMETERS: Homo sapiens, Concanavalin A + PMA, 20 h, read-out: IC 50 PBMC IL-2
Experimental: Inhibition of cytokine IL-2, IL-4, IL-5 and TNF α was determined as described below. PBMC from freshly collected HWB were isolated by density gradient using Histopaque and seeded in a 96-well plate. Cells were incubated with desired concentrations of the inhibitor for 15 min. […] Data were analysed using GraphPad Prism. IC50 values for each compound were determined based on the percent inhibition due to the test compound compared to the control.
ENDPOINT NAME: IC50 (nM)
Response body: numeric value in nM, unit text excluded.

Request: Recorded IC50 for O=C(Cn1nnc2ccccc21)Nc1ccc(-n2nc(C(F)(F)F)cc2C2CC2)cc1 with IL-2, please?
Response: 383

----------
ASSAY TARGET: UniProt Q96D31
Sequence (Q96D31 whole entry): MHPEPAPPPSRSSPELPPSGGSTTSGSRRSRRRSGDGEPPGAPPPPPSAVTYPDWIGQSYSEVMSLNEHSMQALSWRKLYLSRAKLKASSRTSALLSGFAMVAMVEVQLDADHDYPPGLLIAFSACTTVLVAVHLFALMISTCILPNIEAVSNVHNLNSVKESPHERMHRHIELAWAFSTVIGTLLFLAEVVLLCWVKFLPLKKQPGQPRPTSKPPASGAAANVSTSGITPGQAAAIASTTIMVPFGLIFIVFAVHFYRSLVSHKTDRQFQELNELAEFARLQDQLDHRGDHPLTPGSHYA
PROCEDURE SUMMARY: In-vitro CRAC channel inhibition assay in Jurkat cells (thapsigargin-induced calcium influx)
Type: cell-based
RUN PARAMETERS: 1 uM
Counter-ions that a name gives are not always drawn.
The following compounds are shown together with reported inhibition at 1 µM values.
Response body: numeric value in %, unit text excluded.

These recorded examples may help you get a feel for the data.
>>> number("O=C(Cn1nnc2ccccc21)Nc1ccc(-n2nc(C3CC3)cc2C2CC2)cc1")
94.6
>>> number("O=C(Nc1ccc(-n2nc(C3CC3)cc2C2CC2)nc1)c1ccc2ncccc2c1 [Example 13, Dihydrochloride]")
22.4
>>> number("O=C(Cn1nnc2ccccc21)Nc1ccc(-n2nc(C(F)(F)F)cc2C2CC2)nc1")
41.2

Request: Give the measured inhibition at 1 µM of O=C(Cn1nnc2ccccc21)Nc1ccc(-n2nc(C3CC3)cc2C2CC2)nc1 .
Response: 3.93

Request: Give the measured inhibition at 1 µM of O=C(Cc1cn2ccccc2n1)Nc1ccc(-n2nc(C(F)(F)F)cc2C2CC2)cc1 [Example 26, Hydrochloride] .
Response: 30.9

Request: Give the measured inhibition at 1 µM of CC(C(=O)Nc1ccc(-n2nc(C(F)(F)F)cc2C2CC2)cc1)c1ccc2ncccc2c1 (centres unmarked) [Example 28, Hydrochloride] .
Response: 0

Request: Give the measured inhibition at 1 µM of O=C(Cc1ccc2ncccc2c1)Nc1ccc(-n2nc(C(F)(F)F)cc2C2CC2)nc1 [Example 34, hydrochloride] .
Response: 51.2

Request: Give the measured inhibition at 1 µM of O=C(Cc1c[nH]c2ccccc12)Nc1ccc(-n2nc(C3CC3)cc2C2CC2)cc1 .
Response: 36.8

----------
ASSAY TARGET: UniProt Q96D31
PROCEDURE SUMMARY: In-vitro CRAC channel inhibition assay in NCI-H460 cancer cell line (thapsigargin-induced calcium influx)
Type: cell-based
RUN PARAMETERS: 1 μM, NCI-H460 cells, read-out: NCI-H460 Cell Ca assay % inhibition @ 1 μM
Where a name gives a salt, the structure may show the parent alone.
ENDPOINT NAME: inhibition at 1 µM
Be sure to follow the number with its unit.

>>> result("O=C(Nc1ccc(-n2nc(C(F)(F)F)cc2C2CC2)cc1)c1ccc2ncccc2c1 [Example 17, hydrochloride]")
"100%"
>>> result("O=C(Nc1ccc(-n2nc(C3CC3)cc2C2CC2)cc1)c1ccc2ncccc2c1 [Example 3, hydrochloride]")
"100%"
>>> result("O=C(Cn1cnc2ccccc21)Nc1ccc(-n2nc(C(F)(F)F)cc2C2CC2)cc1 [Example 19]")
"100%"

Request: Recorded inhibition at 1 µM for O=C(Nc1ccc(-n2nc(C3CC3)cc2C2CC2)cc1)c1ccc2nccnc2c1 [Example 4] with UniProt Q96D31, please?
Response: 80.7%

Request: Recorded inhibition at 1 µM for O=C(Nc1ccc(-n2nc(C3CC3)cc2C2CC2)cc1)c1ccc2nn[nH]c2c1 [Example 2] with UniProt Q96D31, please?
Response: 91.1%

Request: Recorded inhibition at 1 µM for O=C(Cc1ccc2ncccc2c1)Nc1ccc(-n2nc(C(F)(F)F)cc2C2CC2)cc1 [Example 27, Hydrochloride] with UniProt Q96D31, please?
Response: 98.1%
